experimental protocol: Acumen qHTS Assay for Inhibitors of the mTORC1 Signaling Pathway in MEF (Tsc2-/-, p53-/-) Cells: Sytravon; note: nearly all actives have a fitted effect of over 50% in size
experimental parameters: phospho-rpS6 immunofluorescence/PI, 24 h; series mostly up to 38.3 µM
Text: NIH Molecular Libraries Probe Production Centers Network [MLPCN] NIH Chemical Genomics Center [NCGC] […] NCGC Acumen Assay Protocol Summary: For quantitative high throughput analysis of mTORC1 signaling, we developed a cell-based assay for immuno-fluorescence based detection of rpS6 phosphorylation on the Acumen Explorer that will be used a platform for the primary small molecule screen. […]
In all, about 44,000 compounds went through this assay and about 340 (0.77%) were called active. Not shown: some 5% with an inconclusive outcome. Calls come from the whole dose curve; as a rule, active = well fitted inhibition curve with a large enough effect; inconclusive = small, poorly fitted or top-dose-only effect; inactive = flat fitted curve, though single readings scatter. The list comes from a sample in which actives are over-represented; it also holds close analogues and randomly drawn compounds.
Mark one answer only. Choices: active, inactive

Before answering, review these 3 worked examples.
# molecule, group
data = [
    ("CCCCSc1ncnc2c1sc1nc(N3CCOCC3)c3c(c12)CCCC3", "inactive"),
    ("COc1ccccc1NC(=O)c1sc2nc(C)c(C(=O)Nc3ccc(Cl)cc3)c(-c3ccc(Br)cc3)c2c1N", "inactive"),
    ("CCOc1ccc(N(Cc2ccccc2)C(=O)c2nc(S(C)(=O)=O)ncc2Cl)cc1", "active"),
]

Please indicate how the test categorized Cc1ccc(OCC(=O)Nc2ccc(OCc3cc(=O)n4c(C)csc4n3)cc2)cc1C .
inactive

Now this one: CC(=O)c1cccc(NC(=O)CSc2nc3c(c(=O)[nH]2)CCC3)c1
inactive

Now this one: CCCCN(C)S(=O)(=O)c1ccc(C(=O)Nc2sc3c(c2C(N)=O)CC(C)(C)NC3(C)C)cc1
inactive

Now this one: CCN(CC)c1ccc(NS(=O)(=O)c2cc(-c3cc(C)no3)ccc2C)c(C)c1
inactive

Now this one: O=c1cc(-c2ccccc2)n2c(SCc3ccccc3)nnc2[nH]1
inactive

Now this one: CC(C)S(=O)(=O)c1oc(-c2ccc(F)cc2)nc1S(=O)(=O)c1ccc(F)cc1
active

Now this one: O=C(Cc1ccc(Cl)cc1)Nc1ccc2nn(-c3ccc(Cl)cc3)nc2c1
inactive

Now this one: Cc1cc2ccccc2n1CCNC(=O)c1ccc(F)cc1
inactive

Now this one: CCc1cccc(NC(=O)Cn2nc(CC)n3c(cc4cc(C)ccc43)c2=O)c1
inactive

Now this one: COc1ccc(NC(=O)c2cnc(Nc3ccc(C)c(Cl)c3)c3ccccc23)cc1OC
inactive

Now this one: COC(=O)c1cnn(-c2ccc(C(=O)Nc3ccc(OC(F)(F)F)cc3)cc2)c1N
inactive

Now this one: CC1=C(c2ccc(Cl)cc2)S(=O)(=O)N=C1N1CCN(c2cc(C)ccc2C)CC1
inactive

Now this one: COc1cccc(C(=O)Nc2ccc3nc4n(c(=O)c3c2)CCCCC4)c1
inactive

Now this one: COc1ccc(Cl)cc1NC(=O)CSc1nc(-c2cccs2)cc(C(F)(F)F)n1
inactive

Now this one: COc1cccc(CNCc2c(C(=O)O)n(Cc3ccc(C)cc3)c3cc(C)ccc23)c1OC
inactive

----------
experimental protocol: Acumen qHTS Assay for Inhibitors of the mTORC1 Signaling Pathway in MEF (Tsc2-/-, p53-/-) Cells: Sytravon; note: nearly all actives have a fitted effect of over 50% in size
experimental parameters: phospho-rpS6 immunofluorescence/PI, 24 h; series mostly up to 38.3 µM
About 340 (0.77%) of roughly 44,000 compounds were called active. About 5% were inconclusive and are not listed. Calls come from the whole dose curve; as a rule, active = well fitted inhibition curve with a large enough effect; inconclusive = small, poorly fitted or top-dose-only effect; inactive = flat fitted curve, though single readings scatter. This excerpt belongs to a sample that is enriched for actives.
Mark one answer only. Choices: active, inactive

# compound, group
records = [
    ("CN(C)CCN(Cc1ccccc1)S(=O)(=O)c1csc(C(N)=O)c1", "inactive"),
]

Please indicate how the test categorized CCOc1ccc(CCNC(=O)Cn2nc(CC)n3c(cc4sc(CC)cc43)c2=O)cc1OCC .
inactive

Now this one: Cc1ccccc1NC(=O)Cn1cc(C(=O)c2cccs2)c2ccccc21
inactive
